Reference for the values: the OPERA property sets (Mansouri et al. 2018)

measure: melting point (°C)

* CC(=O)N(C)C(=O)COC(=O)c1ccccc1 | 102
* CCOC(=O)Cc1ccccc1 | -29.4
* Oc1ccc(C(c2ccc(O)cc2)(C(F)(F)F)C(F)(F)F)cc1 | 162
* C=C1CCO[C@]2([C@H](O)[C@@](C)(O)CO)NC(=O)[C@@]1(O)NC2=O | 188
* O=C(O)CCCCCCCCCCCC(=O)O | 111
* O=c1c(O)c(-c2ccc(O)c(O)c2)oc2cc(O)ccc12 | 330
* O=[N+]([O-])c1ccc2c(c1)NCC2 | 68
* CCNC(N)=O | 92.5
* CC(C)NCC(O)c1ccc(NS(C)(=O)=O)cc1 (centres undefined) | 207
* CCOC(=O)c1ccc2c(c1)OCO2 | 18.5
* c1ccsc1 | -39.4
* Brc1ccc2cccnc2c1 | 34
* O=C(O)Cc1cccc([N+](=O)[O-])c1 | 118
* O=C(Cl)c1ccc(C(=O)Cl)cc1 | 83.5
* Nc1ccc(Cl)c([N+](=O)[O-])c1 | 103
* CN(C)C(=O)Oc1cccc([N+](C)(C)C)c1.COS(=O)(=O)[O-] | 143
* O=[N+]([O-])c1ccc(O)cc1O | 122
* NC1CCC(CC2CCC(N)CC2)CC1 (centres undefined) | 15
* CC1(C)O[C@@H]2C[C@H]3[C@@H]4CCC5=CC(=O)C=C[C@]5(C)[C@@]4(F)[C@@H](O)C[C@]3(C)[C@]2(C(=O)CO)O1 | 293

====

measure: boiling point (°C)

- CCCCCCCC(=O)O: 239
- C=CCCCCCCCCC=C: 208
- CCCCCCCCc1ccc(N)cc1: 310
- ClC1=C(Cl)C(Cl)(Cl)C(Cl)(Cl)C1(Cl)Cl: 283
- CC(C)C(C)c1ccccc1 (centres undefined): 187
- CCOCCOCCOCC: 188
- COCc1ccccc1: 170
- CC(C)CNCCO: 199
- CC(O)C(Cl)(Cl)Cl (centres undefined): 163
- CCCCCF: 62.8
- CC(C)CC(Cl)Cl: 130
- CC(=O)c1ccc(N)cc1: 294
- COC(=O)c1ccoc1: 160
- CCCCCOc1ccccc1: 200

====

Documented boiling point across a set of compounds
measure: boiling point (°C)

* C[C@H](O)CC[C@H](C)O | 218
* CCCCOC(=O)c1ccccc1O | 271
* Cc1ccc(C(C)C)cc1 | 177
* C=C(C)C1CC1 | 70
* Cc1ccc2nc(C)cc(C)c2c1 | 280
* COC(=O)c1ccc(C)cc1C | 232
* CCOc1ccc([N+](=O)[O-])cc1 | 283
* CCOCCOCCO | 196
* Cn1cc[nH]c1=S | 280
* Nc1ccc(Cl)cc1 | 232
* CCc1cccc(C(C)C)c1 | 192
* CCOC(CN(C)C)OCC | 170
* C[C@@H]1CC[C@H](O)C1 | 148
* Cc1ccccc1 | 111

====

Listed here are compounds together with their documented log10 vapour pressure (mmHg).
measure: log10 vapour pressure (mmHg)

* NC1CCCCC1 | 1
* CC12CCC(CC1)C(C)(C)O2 | 0.279
* CC[Si](Cl)(Cl)Cl | 1.67
* CC1=CCCCC1 | 1.49
* Cc1cccc2c(C)cccc12 | -2.3
